# test-target: human MC4R receptor (human, UniProt P32245 1-332)
# Sequence (P32245 whole entry): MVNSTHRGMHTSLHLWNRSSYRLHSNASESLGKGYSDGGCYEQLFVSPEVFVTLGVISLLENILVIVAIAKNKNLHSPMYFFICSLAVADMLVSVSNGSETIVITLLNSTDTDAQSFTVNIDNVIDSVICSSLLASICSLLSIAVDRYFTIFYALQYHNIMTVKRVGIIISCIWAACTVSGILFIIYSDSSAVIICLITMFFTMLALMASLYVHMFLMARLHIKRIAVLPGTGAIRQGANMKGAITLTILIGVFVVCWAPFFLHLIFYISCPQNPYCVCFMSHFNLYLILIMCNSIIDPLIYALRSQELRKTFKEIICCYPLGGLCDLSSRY
# assay-text: cell-based or functional assay
Positions of bridges follow the written chain, without caps; N, C: chain ends. Non-standard residues stand in square brackets, D forms with d. 2Pal = N[C@@H](Cc1ccccn1)C(=O)O; 3Pal = N[C@@H](Cc1cccnc1)C(=O)O; Cit = NC(=O)NCCC[C@H](N)C(=O)O; Nle = CCCC[C@H](N)C(=O)O; Aib = CC(C)(N)C(=O)O
The reader will find reported cAMP EC50 values listed item by item below.
Form entry: value (nM) — number only.

Sample records with cAMP EC50:
[
  {
    "binder": "Ac-RC[dA]R[dF][Cit][dW]C-NH2 (disulfide 2-8) [CTX-1281]",
    "numeric-value": 97
  },
  {
    "binder": "Ac-R[Nle]C[3Pal][dF]RWC-NH2 (disulfide 3-8; SMILES CCCC[C@H](NC(=O)[C@H](CCCNC(=N)N)NC(C)=O)C(=O)N[C@H]1CSSC[C@@H](C(N)=O)NC(=O)[C@H](Cc2c[nH]c3ccccc23)NC(=O)[C@H](CCCNC(=N)N)NC(=O)[C@@H](Cc2ccccc2)NC(=O)[C@H](Cc2cccnc2)NC1=O) [CTX-1620]",
    "numeric-value": 4.7
  },
  {
    "binder": "Ac-R[Nle]C[2Pal][dF]RWC-NH2 (disulfide 3-8; SMILES CCCC[C@H](NC(=O)[C@H](CCCNC(=N)N)NC(C)=O)C(=O)N[C@H]1CSSC[C@@H](C(N)=O)NC(=O)[C@H](Cc2c[nH]c3ccccc23)NC(=O)[C@H](CCCNC(=N)N)NC(=O)[C@@H](Cc2ccccc2)NC(=O)[C@H](Cc2ccccn2)NC1=O) [CTX-1619]",
    "numeric-value": 2.6
  },
  {
    "binder": "Ac-RC[dA][Cit][dF]R[dW]C-NH2 (disulfide 2-8) [CTX-1286]",
    "numeric-value": 262
  }
]

The recorded cAMP EC50 for entry Ac-CGR[dF]RWC-NH2 (disulfide 1-7; SMILES CC(=O)N[C@H]1CSSC[C@@H](C(N)=O)NC(=O)[C@H](Cc2c[nH]c3ccccc23)NC(=O)[C@H](CCCNC(=N)N)NC(=O)[C@@H](Cc2ccccc2)NC(=O)[C@H](CCCNC(=N)N)NC(=O)CNC1=O) [CTX-1629] equals 0.67

The recorded cAMP EC50 for entry Ac-RC[Aib]R[dF]RWC-NH2 (disulfide 2-8) [CTX-1292] equals 0.16

The recorded cAMP EC50 for entry {CH2CO}-[Aib]H[dF]RFC-NH2 (thioether N-6; SMILES CC1(C)NC(=O)CSC[C@@H](C(N)=O)NC(=O)[C@H](Cc2ccccc2)NC(=O)[C@H](CCCNC(=N)N)NC(=O)[C@@H](Cc2ccccc2)NC(=O)[C@H](Cc2c[nH]cn2)NC1=O) [CTX-1650] equals 288

The reported measurements were obtained from patent US20240391954A1.
